- TARGET_OF_ASSAY: NPR-B (Homo sapiens)
- Construct: a functional assay using endogenously NPR-B expressing GTM-3 cells; endogenous in cells; host or cells: GTM-3 (transformed human trabecular meshwork cells)
- METHOD_SUMMARY: NPR-B induced production of cyclic GMP in GTM-3 cells
- Type: cell-based
- SETTINGS: GTM-3 cells; group needs both EC50 and Emax criteria, checked A then B then C; read-out: Activity (group): NPR-B activation, EC50 and Emax (CNP = 100%)
pEC50: −log10 of the molar value. Where a SMILES comes first, the peptide text is derived from it. Bridges are numbered along the chain shown (N, C = ends). [ ]: non-standard residue; d: D form. The star is where a group is joined. Hexanoyl = CCCCCC(=O)*
pEC50 values for the compounds below.

CCCCCC(=O)N[C@H]1CSSC[C@@H](C(N)=O)NC(=O)[C@H](CO)NC(=O)[C@H]([C@@H](C)CC)NC(=O)[C@H](CCCNC(=N)N)NC(=O)[C@H](CC(=O)O)NC(=O)[C@H](CC(C)C)NC(=O)[C@H](CCCCN)NC(=O)[C@H]([C@@H](C)O)NC(=O)CNC(=O)[C@H](Cc2ccccc2)NC(=O)[C@@H](C)NC1=O [compound 100] (Hexanoyl-C[dA]FGTKLDRISC-NH2; disulfide 1-12): > 5.30

Note to self: pEC50 recorded for CC[C@H](C)[C@@H]1NC(=O)[C@H](CCCNC(=N)N)NC(=O)[C@H](CC(=O)O)NC(=O)[C@H](CC(C)C)NC(=O)[C@H](CCCCN)NC(=O)[C@H](CC(C)C)NC(=O)CNC(=O)[C@H](Cc2ccccc2)NC(=O)[C@@H](CO)NC(=O)[C@@H](NC(=O)[C@@H](N)CCSC)CSSC[C@@H](C(N)=O)NC(=O)[C@H](CO)NC1=O [compound 39] was > 5.30

Item: CC[C@H](C)[C@@H]1NC(=O)[C@H](CCCNC(=N)N)NC(=O)[C@H](CC(=O)O)NC(=O)[C@H](CC(C)C)NC(=O)[C@H](CCCCN)NC(=O)[C@H](CC(C)C)NC(=O)CNC(=O)[C@H](Cc2ccccc2)NC(=O)[C@H](Cc2c[nH]cn2)NC(=O)[C@@H](NC(=O)[C@@H](N)CCSC)CSSC[C@@H](C(=O)N[C@@H](Cc2c[nH]cn2)C(=O)N[C@@H](CCCNC(=N)N)C(N)=O)NC(=O)[C@H](CO)NC1=O [compound 25] (H-MCHFGLKLDRISCHR-NH2; disulfide 2-13) | pEC50: > 4.82

###

- TARGET_OF_ASSAY: NPR-B (Homo sapiens, UniProt P20594)
- Construct: a functional assay using endogenously NPR-B expressing GTM-3 cells; endogenous in cells; host or cells: GTM-3 (transformed human trabecular meshwork cells)
- Sequence (P20594 23-1047): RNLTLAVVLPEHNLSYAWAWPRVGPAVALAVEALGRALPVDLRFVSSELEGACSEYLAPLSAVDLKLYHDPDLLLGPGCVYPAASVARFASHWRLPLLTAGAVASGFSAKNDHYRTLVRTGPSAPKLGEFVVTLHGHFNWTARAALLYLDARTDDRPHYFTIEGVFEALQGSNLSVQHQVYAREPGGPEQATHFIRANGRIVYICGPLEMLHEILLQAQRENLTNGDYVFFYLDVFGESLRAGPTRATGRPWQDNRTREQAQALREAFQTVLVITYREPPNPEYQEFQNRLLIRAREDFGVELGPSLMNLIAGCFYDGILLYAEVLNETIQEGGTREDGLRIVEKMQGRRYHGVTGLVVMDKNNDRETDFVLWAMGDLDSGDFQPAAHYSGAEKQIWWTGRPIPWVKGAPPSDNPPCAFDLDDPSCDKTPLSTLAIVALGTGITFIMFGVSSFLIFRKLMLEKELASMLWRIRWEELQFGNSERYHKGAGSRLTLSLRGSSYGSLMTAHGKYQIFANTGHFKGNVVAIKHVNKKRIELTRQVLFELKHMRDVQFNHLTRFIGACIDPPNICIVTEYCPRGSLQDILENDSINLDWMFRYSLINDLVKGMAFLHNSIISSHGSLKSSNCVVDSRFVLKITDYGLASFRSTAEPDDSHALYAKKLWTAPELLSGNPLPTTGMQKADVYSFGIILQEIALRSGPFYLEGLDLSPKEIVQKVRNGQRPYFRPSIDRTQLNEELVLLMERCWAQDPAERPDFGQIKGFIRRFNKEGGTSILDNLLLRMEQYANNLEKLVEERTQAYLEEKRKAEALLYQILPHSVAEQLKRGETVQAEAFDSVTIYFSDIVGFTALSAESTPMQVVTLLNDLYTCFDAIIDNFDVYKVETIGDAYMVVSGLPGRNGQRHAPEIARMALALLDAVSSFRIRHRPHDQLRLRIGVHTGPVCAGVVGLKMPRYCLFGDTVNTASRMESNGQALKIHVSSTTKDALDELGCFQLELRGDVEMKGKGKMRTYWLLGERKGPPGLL
- METHOD_SUMMARY: NPR-B induced production of cyclic GMP in GTM-3 cells
- Type: cell-based
- SETTINGS: GTM-3 cells; group needs both EC50 and Emax criteria, checked A then B then C; read-out: Activity (group): NPR-B activation, EC50 and Emax (CNP = 100%)
Where a SMILES comes first, the peptide text is derived from it. Bridges are numbered along the chain shown (N, C = ends). [ ]: non-standard residue; d: D form. The star is where a group is joined. Hexanoyl = CCCCCC(=O)*
MEASURED_QUANTITY: EC50

Here is how some compounds turned out for EC50.
CC[C@H](C)[C@@H]1NC(=O)[C@H](CCCNC(=N)N)NC(=O)[C@H](CC(=O)O)NC(=O)[C@H](CC(C)C)NC(=O)[C@H](CCCCN)NC(=O)[C@H](CC(C)C)NC(=O)CNC(=O)[C@H](Cc2ccccc2)NC(=O)[C@H](Cc2c[nH]cn2)NC(=O)[C@H](NC(=O)[C@@H](N)CCSC)CSSC[C@H](C(N)=O)NC(=O)[C@H](CO)NC1=O [compound 13]: < 15 µM
CC[C@H](C)[C@@H]1NC(=O)[C@H](CCCNC(=N)N)NC(=O)[C@H](CC(=O)O)NC(=O)[C@H](CC(C)C)NC(=O)[C@H](CCCCN)NC(=O)[C@H](CC(C)C)NC(=O)CNC(=O)[C@H](Cc2ccccc2)NC(=O)[C@H](Cc2c[nH]cn2)NC(=O)[C@@H](NC(=O)[C@@H](N)CCSC)CSSC[C@@H](C(=O)N[C@@H](CO)C(=O)N[C@@H](CCCNC(=N)N)C(N)=O)NC(=O)[C@H](CO)NC1=O [compound 24] (H-MCHFGLKLDRISCSR-NH2; disulfide 2-13): < 5 µM
CCCCCC(=O)N[C@H]1CSSC[C@@H](C(N)=O)NC(=O)[C@H](CO)NC(=O)[C@H]([C@@H](C)CC)NC(=O)[C@H](CCCNC(=N)N)NC(=O)[C@H](CC(=O)O)NC(=O)[C@H]([C@@H](C)CC)NC(=O)[C@H](CCCCN)NC(=O)[C@H](CC(C)C)NC(=O)CNC(=O)[C@H](Cc2ccccc2)NC(=O)[C@@H](C)NC1=O [compound 87] (Hexanoyl-C[dA]FGLKIDRISC-NH2; disulfide 1-12): < 1 µM
CC[C@H](C)[C@@H]1NC(=O)[C@H](CCCNC(=N)N)NC(=O)[C@H](CC(=O)O)NC(=O)[C@H](CC(C)C)NC(=O)[C@H](CCCCN)NC(=O)[C@H](CC(C)C)NC(=O)CNC(=O)[C@H](Cc2ccccc2)NC(=O)[C@@H](CC(N)=O)NC(=O)[C@@H](NC(=O)[C@@H](N)CCSC)CSSC[C@@H](C(N)=O)NC(=O)[C@H](CO)NC1=O [compound 40]: < 5 µM

API: the following record is the query input.
Observed EC50 on NPR-B (Homo sapiens, UniProt P20594), entry CC[C@H](C)[C@@H]1NC(=O)[C@H](CCCNC(=N)N)NC(=O)[C@H](CC(=O)O)NC(=O)[C@H](CC(C)C)NC(=O)[C@H](CCCCN)NC(=O)[C@H](CC(C)C)NC(=O)CNC(=O)[C@H](Cc2ccccc2)NC(=O)[C@H](Cc2c[nH]cn2)NC(=O)[C@@H](NC(=O)[C@@H](N)CCSC)CSSC[C@@H](C(=O)N[C@@H](Cc2ccc(O)cc2)C(=O)N[C@@H](CCCNC(=N)N)C(N)=O)NC(=O)[C@H](CO)NC1=O [compound 5] (H-MCHFGLKLDRISCYR-NH2; disulfide 2-13) , equals < 5 µM
